The measured values listed here are drawn from patent US20260193326A1.

- Assay target: T1, AAV5 (adeno-associated virus 5)
- T1 construct: also called adeno-associated virus serotype 5
- Assay remarks: SPR, AAV amine-coupled to CM5 chip;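 further: nanobodies flowed as analyte at seven concentrations spanning 1–100 nM over immobilized AAV (500–800 RU), kinetic constants derived by fitting the binding curves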
Threshold check on kon: at or above 50000 M⁻¹ s⁻¹ gives class 1, strictly below gives class 0.

>  <Binder>
A4-086 (VHH) VHH: VQLQESGGGLVQPGGSLRLSCAASGSRFSLNTMGWYRQAPGKQRELVAAVTRGGNTNYADFVKGRFTISRDNAKNTVYLQMNSLRPEDTAVYYCHVDELRESSWTTSNLWGQGTQVTVSS

>  <Group>
class 0

$$$$
>  <Binder>
A4-059 (VHH) VHH: VQLQESGGGAVQPGGSLRLSCAASGSHFSLNTMGWYRRAPGKQRELVATVTRGGSTNYADSVKGRFTISRDNAKNTIYLQMNSLRPEDTAVYYCHVDEVRQSTWTTSNLWGQGTQVTVSS

>  <Group>
class 1

$$$$
>  <Binder>
A4-076 (VHH) VHH: VQLQESGGGLVHSGGSLRLSCAASGSMFSLNTMGWYRQAPGKQRELVATITRGGGTSYADSVKGRFTISRDNAKNTVYLQMNSLRPEDTAVYYCHVDELRQSSWTTSNLWGQGTQVTVSS

>  <Group>
class 0

$$$$
>  <Binder>
A4-066 (VHH) VHH: VQLQESGGGLVQTGGSLRLSCAASGRAFSLNTMGWYRQAPGKQRELVATVTRGGSTNYAGSVKGRFTISRDNAKNTVYLQMNSLRPEDTAVYYCHVDEVRESSWTTSNLWGQGTQVTVSS

>  <Group>
class 1

$$$$
>  <Binder>
A4-093 (VHH) VHH: VQLQESGGGLVQTGGSLRLSCAASGSIFIINTMGWYRQRAGKQRELVATVTRGGSTNYADSVKGRFTISRDNAKNTVYLQMNTLRPEDTAVYYCHVDELRQSSWTTSNLWGQGTQVTVSS

>  <Group>
class 1

$$$$
>  <Binder>
A4-051 (VHH) VHH: VQLQESGGGLVQPGGSLRLSCAASGSSFVINTMGWYRRAPGKQRELVAAVTRGGSTNYADSVKGRFTISRDNAKNTVYLQMNSLRPEDTAVYYCHVDEVRQSSWTTSNLWGQGTQVTVSS

>  <Group>
class 0

$$$$
>  <Binder>
A4-096 (VHH) VHH: VQLQESGGGLVQPGGSLRLSCIASGSSFSANTMGWYRQAPGKQRELVATITRGGNTNYGDSVKGRFTISRDNAKNTVYLQMNSLRPEDTAVYYCHIDEIRESTWTTSNLWGQGTQVTVSS

>  <Group>
class 0

$$$$

# evaluate next
Does A4-077 (VHH) VHH: VQLQESGGGLVQPGGSLRLSCAASGSMFSINIMGWYRQAPGKQREFVATITRGGSTNYADFVKGRFTISRDNAKNTVYLQMNSLRPEDTAVYYCHVDELRDSSWTTSNLWGQGTQVTVSS have a reported kon of at least 50000 M⁻¹ s⁻¹?
class 1
